test: ATG_PXRE_CIS: Attagene CIS-FACTORIAL HepG2 Assay for human Pregnane X Receptor Element (PXRE) (AID 2282957); conditions: HepG2 Attagene CIS-FACTORIAL PXRE reporter, mRNA; actives raise or lower the signal
The source made the active and inactive calls. The calls were made as follows: active = hit-call score of the fitted dose curve at least 0.9, where 1 is the maximum; inactive = score below 0.9.
measurement-name: AC50

Recorded AC50, per entry:
In [3]: df
Out[3]:
                                   molecule   reported_result
0                                C=C(Cl)CCl    52 µM (active)
1  O=CNC(N1CCN(C(NC=O)C(Cl)(Cl)Cl)CC1)C(Cl)(Cl)Cl (stereo not given)  7.22 µM (active)
2                                  C=COCCCl          inactive
3  Cc1cc(C)c(C2=C(OC(=O)CC(C)(C)C)C3(CCCC3)OC2=O)c(C)c1  7.83 µM (active)
4                                C=CC(=O)OC          inactive
5                                     BrCBr          inactive
6  CC(O)CN(CC(C)O)CC(C)O (stereo not given)          inactive
7                        CCCCOP(=O)(O)OCCCC          inactive

stdin: Fill blank: measured AC50 of the molecule CC1CCCC1.[C-]#[O+].[C-]#[O+].[C-]#[O+].[Mn] is ____.
stdout: inactive

stdin: Fill blank: measured AC50 of the molecule CCCCNP(N)(N)=S is ____.
stdout: inactive

stdin: Fill blank: measured AC50 of the molecule O=C(O)COc1ccccc1 is ____.
stdout: inactive

stdin: Fill blank: measured AC50 of the molecule CSc1nc(N=[N+]=[N-])nc(NC(C)C)n1 is ____.
stdout: 27.2 µM (active)

stdin: Fill blank: measured AC50 of the molecule c1cc(OCC2CO2)ccc1Cc1ccc(OCC2CO2)cc1 (stereo not given) is ____.
stdout: 8.22 µM (active)

stdin: Fill blank: measured AC50 of the molecule O=C1Nc2ccc(Cl)cc2C(c2ccccc2)=NC1O (stereo not given) is ____.
stdout: inactive

stdin: Fill blank: measured AC50 of the molecule C[C@]12CCC(=O)C(O)=C1CC[C@@H]1[C@@H]2CC[C@]2(C)C(=O)CC[C@@H]12 is ____.
stdout: 11.2 µM (active)

====

target: Nuclear receptor subfamily 1 group I member 2 (Homo sapiens) (UniProt O75469); assay: ATG_PXR_TRANS: Attagene TRANS-FACTORIAL HepG2 Assay for human Pregnane X Receptor (PXR) (AID 2283008)
Sequence (O75469 whole entry, looked up): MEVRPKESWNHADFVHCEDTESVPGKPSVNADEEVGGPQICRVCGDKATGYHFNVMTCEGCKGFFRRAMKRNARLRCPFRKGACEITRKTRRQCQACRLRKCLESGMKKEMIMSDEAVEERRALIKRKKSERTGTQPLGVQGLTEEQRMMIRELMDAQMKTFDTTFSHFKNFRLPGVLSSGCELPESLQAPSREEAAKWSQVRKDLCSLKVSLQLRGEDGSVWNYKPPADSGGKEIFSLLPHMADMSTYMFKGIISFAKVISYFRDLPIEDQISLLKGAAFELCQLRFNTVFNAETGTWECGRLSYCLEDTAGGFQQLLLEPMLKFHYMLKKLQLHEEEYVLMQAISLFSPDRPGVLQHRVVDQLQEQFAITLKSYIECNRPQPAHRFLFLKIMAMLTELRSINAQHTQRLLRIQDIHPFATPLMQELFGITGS
Inconclusive results are not listed. The source made the active and inactive calls. The calls were made as follows: active = hit-call score of the fitted dose curve at least 0.9, where 1 is the maximum; inconclusive = response in the unintended direction; inactive = score below 0.9.
Form entry, call: pick from yes = active, no = inactive

stdin: Would you mind telling me which call this test gave CCCCOP(=O)(O)OCCCC ?
stdout: no

stdin: Would you mind telling me which call this test gave CC(C)(O)C#N ?
stdout: no

stdin: Would you mind telling me which call this test gave Nc1ccc(Cl)c(Cl)c1 ?
stdout: no

stdin: Would you mind telling me which call this test gave CC(C)[C@@H](C(=O)O[C@@H](C#N)c1cccc(Oc2ccccc2)c1)c1ccc(Cl)cc1 ?
stdout: yes

stdin: Would you mind telling me which call this test gave CC(=O)/C=C/c1ccccc1 ?
stdout: no

stdin: Would you mind telling me which call this test gave CC(C)CCCCCCCOC(=O)c1ccccc1C(=O)OCCCCCCCC(C)C ?
stdout: no

stdin: Would you mind telling me which call this test gave CCOP(=O)(OCC)OCC ?
stdout: no

stdin: Would you mind telling me which call this test gave Nc1c(Cl)c(Cl)c(Cl)c(Cl)c1Cl ?
stdout: yes

stdin: Would you mind telling me which call this test gave Cc1cc(C)c(C2=C(OC(=O)CC(C)(C)C)C3(CCCC3)OC2=O)c(C)c1 ?
stdout: no

stdin: Would you mind telling me which call this test gave C[C@]12CC[C@H](O)C[C@H]1CC[C@@H]1[C@@H]2C[C@@H](O)[C@]2(C)[C@@H](C3=CC(=O)OC3)CC[C@]12O ?
stdout: no

stdin: Would you mind telling me which call this test gave CC1(C)CC(=O)CC(C)(C)N1[O] ?
stdout: no

stdin: Would you mind telling me which call this test gave Cc1ccc(N(SC(F)(Cl)Cl)S(=O)(=O)N(C)C)cc1 ?
stdout: no

stdin: Would you mind telling me which call this test gave COCC(=O)N(c1c(C)cccc1C)N1CCOC1=O ?
stdout: yes

stdin: Would you mind telling me which call this test gave CCc1cc(C)cc(CC)c1-c1c(OC(=O)C(C)(C)C)n2n(c1=O)CCOCC2 ?
stdout: no

stdin: Would you mind telling me which call this test gave Cc1ccc(OP(=O)(Oc2ccc(C)cc2)Oc2ccc(C)cc2)cc1 (tested in a mixture with another compound) ?
stdout: yes

stdin: Would you mind telling me which call this test gave CCC(C)c1cc([N+](=O)[O-])cc([N+](=O)[O-])c1OC(=O)C=C(C)C (configuration not stated) ?
stdout: yes

stdin: Would you mind telling me which call this test gave COc1cc(OC)c(OC)cc1C=O ?
stdout: no

stdin: Would you mind telling me which call this test gave C=CC(=O)OCCCCOC(=O)C=C ?
stdout: no

stdin: Would you mind telling me which call this test gave C=CC(=O)OCC(CC)CCCC (configuration not stated) ?
stdout: no

stdin: Would you mind telling me which call this test gave CCCOC(=O)c1ccccc1C(=O)OCCC ?
stdout: yes

stdin: Would you mind telling me which call this test gave Oc1ccc(C2(c3ccc(O)cc3)c3ccccc3-c3ccccc32)cc1 ?
stdout: yes

stdin: Would you mind telling me which call this test gave C=CCc1ccc(OC(=O)Cc2ccccc2)c(OC)c1 ?
stdout: yes

stdin: Would you mind telling me which call this test gave CN1C(=O)CCS(=O)(=O)C1c1ccc(Cl)cc1 (configuration not stated) ?
stdout: no

stdin: Would you mind telling me which call this test gave CCCCCc1cc(O)cc(O)c1 ?
stdout: yes

stdin: Would you mind telling me which call this test gave CSc1nc(N=[N+]=[N-])nc(NC(C)C)n1 ?
stdout: yes

stdin: Would you mind telling me which call this test gave CC[N+](=O)[O-] ?
stdout: no

stdin: Would you mind telling me which call this test gave CCCCCCCCCCCCCCCC[N+](C)(C)C ?
stdout: no

stdin: Would you mind telling me which call this test gave C=C(Cl)CCl ?
stdout: no

stdin: Would you mind telling me which call this test gave O=S(=O)(c1ccccc1)c1ccccc1 ?
stdout: yes

stdin: Would you mind telling me which call this test gave CN(C)C(=O)C(c1ccccc1)c1ccccc1 ?
stdout: yes

stdin: Would you mind telling me which call this test gave CC(Cc1ccc(C(C)(C)C)cc1)CN1C[C@@H](C)O[C@@H](C)C1 (some centres not stated) ?
stdout: yes

stdin: Would you mind telling me which call this test gave CC(=O)c1cc2c(cc1C)C(C)(C)C(C)CC2(C)C (configuration not stated) ?
stdout: yes

stdin: Would you mind telling me which call this test gave CC(C)COP(=O)(OCC(C)C)OCC(C)C ?
stdout: yes

stdin: Would you mind telling me which call this test gave O=C(NCNC(=O)NC1C(=O)NC(=O)N1CO)NC1C(=O)NC(=O)N1CO (configuration not stated) ?
stdout: no

stdin: Would you mind telling me which call this test gave CCC(C)(C)O ?
stdout: no

stdin: Would you mind telling me which call this test gave COC(=O)COc1ccc(Cl)cc1Cl ?
stdout: no

stdin: Would you mind telling me which call this test gave O=c1c2ccccc2c(=O)c2c1cc(Cl)c1[nH]c3c([nH]c12)c(Cl)cc1c(=O)c2ccccc2c(=O)c13 ?
stdout: yes
